Source of measurements: patent US8003660B2

Target: M2 muscarinic receptor (Homo sapiens, UniProt P08172)
Construct: expressed in transfected cells; host or cells: CHO (M2-CHO)
Sequence (P08172 whole entry): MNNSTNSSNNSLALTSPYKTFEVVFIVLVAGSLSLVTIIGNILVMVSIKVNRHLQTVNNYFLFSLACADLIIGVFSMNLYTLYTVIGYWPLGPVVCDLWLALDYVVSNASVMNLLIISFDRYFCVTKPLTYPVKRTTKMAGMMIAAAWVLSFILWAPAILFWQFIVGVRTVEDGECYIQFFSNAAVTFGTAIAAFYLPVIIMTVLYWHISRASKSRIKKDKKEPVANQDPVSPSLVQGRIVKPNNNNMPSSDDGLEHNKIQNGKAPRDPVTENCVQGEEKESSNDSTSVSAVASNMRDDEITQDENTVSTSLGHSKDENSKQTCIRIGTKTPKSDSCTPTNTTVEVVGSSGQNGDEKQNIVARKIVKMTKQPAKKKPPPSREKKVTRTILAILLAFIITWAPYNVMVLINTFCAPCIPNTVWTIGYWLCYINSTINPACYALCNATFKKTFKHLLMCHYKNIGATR
Assay: Functional mobilization of intracellular calcium (FLIPR) in CHO cells expressing M2
Assay type: cell-based
Conditions: CHO cells expressing M2, FLIPR calcium
pEC50: −log10 of the molar value.
Readings of pEC50 for the listed compounds
METRIC: pEC50

COMPOUND: CCC(=O)C1NCCC1C(=O)N[C@H]1CCC2(CCN(CCC(C)(C)C)CC2)c2cc(F)ccc21 (stereo partly shown) [compound 26]
READOUT_VALUE: < 5.30
//
COMPOUND: CC#CCN(C(C)=O)[C@H]1CCC2(CCN(CCC(C)C)CC2)c2ccccc21 [compound 141]
READOUT_VALUE: < 5.30
//
COMPOUND: CC[C@@H](C)CN1CCC2(CC[C@H](NC(C)=O)c3ccccc32)CC1 [compound 56]
READOUT_VALUE: > 5.70
//
COMPOUND: CC(C)(C)CCN1CCC2(CC[C@H](NC(=O)Cc3cccnc3)c3ccc(F)cc32)CC1 [compound 79]
READOUT_VALUE: > 5.70
//
COMPOUND: CC(=O)N1CCC[C@@H]1C(=O)N[C@H]1CCC2(CCN(CCC(C)(C)C)CC2)c2ccccc21 [compound 160]
READOUT_VALUE: < 5.30
//
COMPOUND: CCN(C(=O)c1cccnc1)[C@@H]1CCC2(CCN(CCC(C)(C)C)CC2)c2ccccc21 [compound 111]
READOUT_VALUE: < 5.30
//
COMPOUND: CC(=O)N[C@H](C)C(=O)N[C@H]1CCC2(CCN(CCC(C)(C)C)CC2)c2cc(F)ccc21 [compound 46]
READOUT_VALUE: > 5.70
//
COMPOUND: CC(C)(C)CCN1CCC2(CC1)CC(F)(F)C(=O)c1ccccc12 [compound 117]
READOUT_VALUE: > 5.70
//
COMPOUND: CC(C)(C)CCN1CCC2(CC[C@H](NC(=O)CCOC(C)(C)C)c3ccccc32)CC1 [compound 88]
READOUT_VALUE: > 5.70
//
COMPOUND: CCCC(CCC)N1CCC2(CC[C@H](NC(=O)C3CC3)c3ccccc32)CC1 [compound 48]
READOUT_VALUE: < 5.30
//
COMPOUND: COC(=O)CCCN1CCC2(CC[C@H](NC(C)=O)c3ccccc32)CC1 [compound 16]
READOUT_VALUE: < 5.30
//
COMPOUND: CCN(C(=O)CC(C)(C)O)[C@H]1CCC2(CCN(CCC(C)(C)C)CC2)c2ccccc21 [compound 42]
READOUT_VALUE: < 5.30
//
COMPOUND: CC(=O)N[C@H]1CCC2(CCN(CCC(C)CC(C)(C)C)CC2)c2ccccc21 (stereo partly shown) [compound 45]
READOUT_VALUE: 5.30 to 5.70
//
COMPOUND: CC(C)CCN1CCC2(CC[C@H](NC(=O)N(C)C)c3ccccc32)CC1 [compound 148]
READOUT_VALUE: < 5.30
//
COMPOUND: CC(C)(C)CCN1CCC2(CC[C@@H](NC(=O)Cc3cccnc3)c3ccccc32)CC1 [compound 134]
READOUT_VALUE: < 5.30
//
COMPOUND: CCOCC(=O)N(CC)[C@H]1CCC2(CCN(CCC(C)(C)C)CC2)c2ccccc21 [compound 140]
READOUT_VALUE: < 5.30
